Source of measurements: patent US20250011468A1

Study system: human plasma-derived FIXa (Haematologic Technologies Inc) (human, UniProt P00740 47-191; P00740 227-461)
Sequence (P00740 47-191, chain 1 of 2): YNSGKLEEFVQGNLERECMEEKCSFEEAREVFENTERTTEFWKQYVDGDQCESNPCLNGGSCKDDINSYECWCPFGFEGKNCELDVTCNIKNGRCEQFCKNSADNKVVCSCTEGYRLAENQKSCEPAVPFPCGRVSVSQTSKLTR
Sequence (P00740 227-461, chain 2 of 2): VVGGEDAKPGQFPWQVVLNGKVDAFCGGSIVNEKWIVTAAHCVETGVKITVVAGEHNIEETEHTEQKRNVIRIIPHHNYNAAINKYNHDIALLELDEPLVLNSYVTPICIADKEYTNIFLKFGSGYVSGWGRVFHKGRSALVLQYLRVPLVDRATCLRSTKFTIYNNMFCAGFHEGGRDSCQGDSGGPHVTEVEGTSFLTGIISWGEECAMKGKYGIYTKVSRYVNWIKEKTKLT
Protocol text: cell-based or functional assay
Field: Stimulation index at 1600 nM OA antibody. Provide a value for each of the binders that follow.

For the binder shown here, mAb5-0144 (monovalent one-armed version of mAb1-8780) (antibody, V domains shown) VH: EVQLVESGGGLVQPGRSLKLSCAASGFTFHDYAMHWVRQVPGKGLEWVSGISWRGDIKGYVDSVKGRFTISRDNAKNSLYLQLNSLRAEDTALYYCVKSYGSGSFYNAFDSWGQGTLVTVSS VL: DIQMTQSPSTLSASAGDRVTITCRASQSISSWLAWYQQKPGKAPKFLIYKASRLDRGVPSRFSGSGSGTEFSLTISSLQPDDFATYYCLEYSSYIRTFGQGTKVEIK , give the reported Stimulation index at 1600 nM OA antibody. 1650 fold

Now this one: mAb5-0658 (monovalent one-armed version of mAb1-8679) (antibody, V domains shown) VH: EVQLVESGGGLVQPGRSLKLSCAASGFTFDDYAMHWVRQVPGKGLEWVSGISWRGDIIGYVKSVKGRFTISRDNAKNSLYLQLNSLRAEDTALYYCVKSYGSGSFYNAFDSWGQGTLVTVSS VL: DIQMTQSPSTLSASVGDRVTITCRASKSIKSWLAWYQQKPGKAPKFLIYKASRLERGVPSRFSGSGSGTEFSLTISSLQPDDFATYYCLEYSSYIRTFGQGTKVEIK 918 fold
